biological target: c-Met kinase (Homo sapiens); test: c-Met kinase assay (ELISA, purified recombinant protein); settings: ELISA, poly(Glu,Tyr)4:1 substrate, two separate experiments
Sequence (P08581 25-1390): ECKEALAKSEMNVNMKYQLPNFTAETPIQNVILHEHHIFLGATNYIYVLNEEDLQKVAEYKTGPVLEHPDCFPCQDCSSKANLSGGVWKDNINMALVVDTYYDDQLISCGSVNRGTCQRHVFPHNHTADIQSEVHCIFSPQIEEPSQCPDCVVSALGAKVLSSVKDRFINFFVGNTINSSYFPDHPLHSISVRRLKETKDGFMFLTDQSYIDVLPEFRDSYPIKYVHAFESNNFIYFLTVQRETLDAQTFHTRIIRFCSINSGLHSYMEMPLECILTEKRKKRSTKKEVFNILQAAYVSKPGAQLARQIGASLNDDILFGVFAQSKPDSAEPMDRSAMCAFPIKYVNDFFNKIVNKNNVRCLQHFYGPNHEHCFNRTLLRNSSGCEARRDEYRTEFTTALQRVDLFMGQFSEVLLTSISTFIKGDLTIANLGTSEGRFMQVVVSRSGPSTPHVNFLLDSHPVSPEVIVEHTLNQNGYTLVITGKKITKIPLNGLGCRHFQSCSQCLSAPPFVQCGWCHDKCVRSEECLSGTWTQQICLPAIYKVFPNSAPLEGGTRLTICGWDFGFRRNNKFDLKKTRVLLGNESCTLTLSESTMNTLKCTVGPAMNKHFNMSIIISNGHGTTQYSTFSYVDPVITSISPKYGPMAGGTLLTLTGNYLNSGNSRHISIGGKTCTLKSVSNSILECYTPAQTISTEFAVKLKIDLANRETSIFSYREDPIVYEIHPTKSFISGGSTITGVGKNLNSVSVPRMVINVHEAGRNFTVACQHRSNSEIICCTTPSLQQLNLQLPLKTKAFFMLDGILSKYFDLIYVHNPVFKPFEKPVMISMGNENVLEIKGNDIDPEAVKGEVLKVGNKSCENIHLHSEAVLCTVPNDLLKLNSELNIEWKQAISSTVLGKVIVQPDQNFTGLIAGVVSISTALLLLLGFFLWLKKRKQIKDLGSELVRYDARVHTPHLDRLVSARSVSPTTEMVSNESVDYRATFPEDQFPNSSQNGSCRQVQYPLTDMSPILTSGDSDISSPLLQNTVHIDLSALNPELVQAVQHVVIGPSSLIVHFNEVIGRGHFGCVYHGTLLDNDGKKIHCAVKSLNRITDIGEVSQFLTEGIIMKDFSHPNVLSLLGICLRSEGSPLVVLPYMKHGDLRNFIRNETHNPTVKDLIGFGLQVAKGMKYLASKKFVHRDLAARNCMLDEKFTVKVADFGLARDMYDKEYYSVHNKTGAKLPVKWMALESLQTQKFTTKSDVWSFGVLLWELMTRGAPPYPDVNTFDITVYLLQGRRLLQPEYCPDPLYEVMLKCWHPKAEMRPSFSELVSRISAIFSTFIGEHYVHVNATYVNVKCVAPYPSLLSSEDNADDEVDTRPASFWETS
Measure Name: IC50 (nM)

I = COc1cc2nccc(Oc3ccc(NC(=O)C4(C)CCCN(c5ccc(F)cc5)C4=O)cc3F)c2cc1OC (stereo not shown) [Compound 20c]
II = CCC1(C(=O)Nc2ccc(Oc3ccnc4cc(OC)c(OC)cc34)c(F)c2)CCCN(c2ccc(F)cc2)C1=O (stereo not shown) [Compound 20d]
III = CCCCC1(C(=O)Nc2ccc(Oc3ccnc4cc(OC)c(OC)cc34)c(F)c2)CCCN(c2ccc(F)cc2)C1=O (stereo not shown) [Compound 20e]
IV = CCOc1ccn(-c2ccc(F)cc2)c(=O)c1C(=O)Nc1ccc(Oc2ccnc(N)c2Cl)c(F)c1 [BMS-777607, reference compound]
Incoming: Sort the items above by IC50, starting with the smallest value. Thanks in advance for listing the labels in the requested order.
Outgoing: IV, I, II, III

Recorded values, source paper PMC6271681.
